// reported EC50 for each item listed
Experiment: In vitro anti-HIV activity in human peripheral blood mononuclear (PBM) cells acutely infected with HIV-1 LAI
Type: functional
Reported Endpoint: EC50 (µM)

>>> recorded_measurement("Cc1cn([C@H]2C[C@H](N=[N+]=[N-])[C@@H](CO)O2)c(=O)[nH]c1=O [ZIDOVUDINE]")
0.004
>>> recorded_measurement("C[C@@H]1CC[C@H]2[C@@H](C)CCO[C@@H]3O[C@]4(C)CC[C@@H]1[C@]32OO4")
50.2
>>> recorded_measurement("CCCC[C@H]1O[C@@H]2O[C@]3(C)CC[C@H]4[C@H](C)CC[C@@H]([C@H]1C)[C@@]24OO3")
4.7
>>> recorded_measurement("CCO[C@H]1O[C@@H]2O[C@@]3(C)CC[C@H]4[C@H](C)CC[C@@H]([C@H]1C)[C@@]24OO3 [ARTEMOTIL]")
41.2

---

Experiment: In vitro anti-HIV activity in human peripheral blood mononuclear (PBM) cells acutely infected with HIV-1 LAI
Type: functional
Reported Endpoint: EC50

>>> recorded_measurement("C[C@@H]1CC[C@H]2[C@@H](C)C(=O)O[C@@H]3O[C@@]4(C)CC[C@@H]1[C@]32OO4")
"> 100 µM"
>>> recorded_measurement("COC(=O)c1ccc([C@H]2OOC3(CCC[C@@H](C)C3)[C@@H](OC)O2)cc1 (stereo partly drawn)")
"> 100 µM"
>>> recorded_measurement("C[C@@H]1CC[C@H]2[C@@H](C)CO[C@@H]3O[C@]4(C)CC[C@@H]1[C@]32OO4")
"> 100 µM"
